Data origin, for the record: PubChem BioAssay (NCI)

Each item that follows carries a reported GI50.
tested on: LOX IMVI melanoma
Endpoint label: GI50

Molecule	Tested on	Meas value
O=C(Cc1csc2nc(-c3ccc(Br)cc3)cn12)N/N=C/c1ccccc1	LOX IMVI melanoma	12.2 µM
Cc1ccc(C(=Nc2ccccc2)N=P(c2ccccc2)(c2ccccc2)c2ccccc2)cc1	LOX IMVI melanoma	0.949 µM
Cc1nc2ccc(Nc3nc(Cl)nc(Nc4ccc(F)cc4)n3)cc2n1Cc1ccccc1	LOX IMVI melanoma	3.59 µM
c1ccc2nc3c(cc2c1)Sc1cc2ccccc2[n+]2c1N3CC2	LOX IMVI melanoma	41.3 µM
CCN(Cc1cccnc1)c1ccc(CO)c(Cl)c1	LOX IMVI melanoma	> 100 µM
Cc1ccc(/C=C2\COc3ccc(O)c(O)c3C2=O)cc1	LOX IMVI melanoma	0.329 µM
CS(=O)(=O)c1ccc(Oc2cc(F)cc(C#N)c2)c2c1[C@H](O)[C@H](F)[C@H]2F	LOX IMVI melanoma	> 100 µM
COc1ccc(-c2nn(C(=O)NCCN(C)C)cc2-c2ccncc2)cc1Cl	LOX IMVI melanoma	4.23 µM
COc1ccc([As]=[As]c2ccc(OC)c(NCS(=O)(=O)O)c2)cc1NCS(=O)(=O)O (stereo not given)	LOX IMVI melanoma	1.34 µM
CS(=O)(=O)Nc1ccc(Nc2c3ccccc3nc3cc([N+](=O)[O-])ccc23)cc1	LOX IMVI melanoma	0.922 µM
